Answer each item with its documented inhibition at 10 µM.
Test system: B16
assayName: Antimelanogenic activity in mouse B16 cells assessed as inhibition of alpha-MSH-induced melanogenesis at 10 uM
Type: functional
Give a bare numeral; the unit % is implied.

Q: What value of measured inhibition at 10 µM is listed for `S=C1NCc2ccccc2N1` ?
Ans: 36

Q: What value of measured inhibition at 10 µM is listed for `Cc1ccc2c(c1)CN(CC(C)C)C(=S)N2C` ?
Ans: 18

Q: What value of measured inhibition at 10 µM is listed for `Cc1ccc2c(c1)CN(C(C)C)C(=O)N2` ?
Ans: 13

Q: What value of measured inhibition at 10 µM is listed for `O=C1NCc2ccccc2N1` ?
Ans: 11

Q: What value of measured inhibition at 10 µM is listed for `Cc1ccc2c(c1)CN(CC(C)C)C(=O)N2` ?
Ans: 11

Q: What value of measured inhibition at 10 µM is listed for `CCCCCCN1Cc2cc(C)ccc2NC1=O` ?
Ans: 12

Q: What value of measured inhibition at 10 µM is listed for `CCCCCCCN1Cc2cc(C)ccc2NC1=O` ?
Ans: 19

Q: What value of measured inhibition at 10 µM is listed for `Cc1ccc2c(c1)CN(C(C)C)C(=S)N2C` ?
Ans: 10

Q: What value of measured inhibition at 10 µM is listed for `O=C1Nc2ccc(Cl)cc2CN1CC1CCCCC1` ?
Ans: 10

Reference source: ChEMBL document CHEMBL1208784
